target: Fes (UniProt P07332); assay: phosphorylation enrichment, bacterial display (enrichment ratio); higher = better substrate or ligand; peptides without Tyr show the background;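 note: 11-residue human phosphosite peptides and single-mutation variants displayed on the E. coli surface, counted by deep sequencing, each peptide's frequency after selection divided by its frequency in the unselected input library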;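 note: frequency after pTyr selection over input frequency; kinase dosed for 20-30% of maximal phosphorylation in three min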
Sequence (P07332 whole entry, looked up): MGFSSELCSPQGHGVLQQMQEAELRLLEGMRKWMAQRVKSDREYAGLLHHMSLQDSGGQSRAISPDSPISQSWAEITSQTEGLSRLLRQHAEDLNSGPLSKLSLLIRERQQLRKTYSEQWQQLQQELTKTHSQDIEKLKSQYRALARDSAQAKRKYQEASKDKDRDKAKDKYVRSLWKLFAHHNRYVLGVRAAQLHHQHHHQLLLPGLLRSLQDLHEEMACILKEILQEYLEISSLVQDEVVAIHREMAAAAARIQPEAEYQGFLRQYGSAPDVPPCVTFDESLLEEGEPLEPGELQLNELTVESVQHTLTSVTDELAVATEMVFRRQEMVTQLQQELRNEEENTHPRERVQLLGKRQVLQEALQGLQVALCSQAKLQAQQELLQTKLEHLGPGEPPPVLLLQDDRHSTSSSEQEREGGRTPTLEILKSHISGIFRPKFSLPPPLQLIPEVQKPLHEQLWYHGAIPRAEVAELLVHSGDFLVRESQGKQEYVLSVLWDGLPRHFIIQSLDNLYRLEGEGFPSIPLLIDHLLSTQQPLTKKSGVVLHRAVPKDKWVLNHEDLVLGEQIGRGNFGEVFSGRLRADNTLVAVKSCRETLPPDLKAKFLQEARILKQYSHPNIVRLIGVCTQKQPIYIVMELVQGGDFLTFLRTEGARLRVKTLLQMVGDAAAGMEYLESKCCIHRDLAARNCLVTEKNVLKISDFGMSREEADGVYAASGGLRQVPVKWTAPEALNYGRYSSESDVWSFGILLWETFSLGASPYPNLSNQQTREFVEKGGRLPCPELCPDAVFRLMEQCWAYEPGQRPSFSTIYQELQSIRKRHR
Threshold rule: phosphorylation enrichment greater than or equal to 1 is YES; below that, NO.

SEQUENCE CHAIN | ANSWER LABEL
SGSFRYGSSCE [SELE_Y390] | NO
EMFNPCFGLFE [NEDD4L_Y679_Y679C_YF] | YES
LSFSEYASVQV [SIRPA_Y496_P491L] | YES
QNRELYSEGLG [CNKSR1_Y665] | NO
YLENYYDLKKD [MMP3_Y42] | YES

###

target: Jak2 (UniProt O60674); test: phosphorylation enrichment, bacterial display (enrichment ratio); higher = better substrate or ligand; peptides without Tyr show the background
Sequence (O60674 whole entry, looked up): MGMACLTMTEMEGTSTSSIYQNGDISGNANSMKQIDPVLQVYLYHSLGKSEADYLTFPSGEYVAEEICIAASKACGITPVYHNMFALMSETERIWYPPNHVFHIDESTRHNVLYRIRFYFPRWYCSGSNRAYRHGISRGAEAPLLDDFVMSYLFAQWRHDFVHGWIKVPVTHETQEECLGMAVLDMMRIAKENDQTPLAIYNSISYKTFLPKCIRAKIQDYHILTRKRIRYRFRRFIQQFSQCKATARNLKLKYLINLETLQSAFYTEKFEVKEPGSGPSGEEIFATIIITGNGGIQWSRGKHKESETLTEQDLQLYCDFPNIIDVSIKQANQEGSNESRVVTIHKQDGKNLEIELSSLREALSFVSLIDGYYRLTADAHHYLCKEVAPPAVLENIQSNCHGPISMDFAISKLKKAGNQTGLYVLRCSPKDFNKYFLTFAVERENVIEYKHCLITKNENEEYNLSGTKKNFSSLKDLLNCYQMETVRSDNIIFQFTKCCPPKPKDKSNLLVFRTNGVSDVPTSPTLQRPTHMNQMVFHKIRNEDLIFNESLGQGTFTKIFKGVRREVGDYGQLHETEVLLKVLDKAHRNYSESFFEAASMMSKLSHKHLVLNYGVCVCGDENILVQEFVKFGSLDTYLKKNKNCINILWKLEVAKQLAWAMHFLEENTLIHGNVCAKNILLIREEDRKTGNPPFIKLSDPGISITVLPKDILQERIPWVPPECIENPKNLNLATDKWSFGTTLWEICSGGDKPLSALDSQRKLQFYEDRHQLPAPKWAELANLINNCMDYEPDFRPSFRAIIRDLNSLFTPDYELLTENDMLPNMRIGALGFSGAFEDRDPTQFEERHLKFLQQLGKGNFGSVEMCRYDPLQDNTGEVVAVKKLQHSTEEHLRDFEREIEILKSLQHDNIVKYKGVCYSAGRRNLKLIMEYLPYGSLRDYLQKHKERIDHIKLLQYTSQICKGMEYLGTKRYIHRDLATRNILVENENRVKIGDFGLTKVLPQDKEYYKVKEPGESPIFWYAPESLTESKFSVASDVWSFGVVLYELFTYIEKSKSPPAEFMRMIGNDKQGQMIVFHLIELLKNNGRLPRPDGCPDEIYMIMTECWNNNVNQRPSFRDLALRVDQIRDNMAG
Catalogue of phosphorylation enrichment readings, one per entry.
QUANTITY MEASURED: phosphorylation enrichment

SEQUENCE CHAIN | QUANTITY MEASURED | TEST RESULT
WIGRKYKKVRF [F8_Y442_R437W] | phosphorylation enrichment | 0.571
EWKQKYEESQS [MYH6_Y1462] | phosphorylation enrichment | 1.04
SLKEFYGEDAK [ALDH3A1_Y272] | phosphorylation enrichment | 0.903
RLLRGYDQSAF [HLA-C_Y137_YF] | phosphorylation enrichment | 0.628
KNNDGYIDFAE [MCFD2_Y135_YF] | phosphorylation enrichment | 0.903
VNTMLYEKFTY [TEK_Y1108_T1106M] | phosphorylation enrichment | 0.811
ANFTEYVATSW [CDKL5_Y171_R175S_YF] | phosphorylation enrichment | 0.974
AAGGRYFGLVG [HARS1_Y363_D364Y_YF] | phosphorylation enrichment | 0.575
GVSFIYTIDGS [DCX_Y105_R102S_YF] | phosphorylation enrichment | 1.54
AIDVGYRLIDC [AKR1B1_Y40_H42L] | phosphorylation enrichment | 0.792
HAVFVCDICHV [TWNK_Y508_Y508C_YF] | phosphorylation enrichment | 0.948
TDLAYYLVRKG [ASL_Y376] | phosphorylation enrichment | 2.05
NYDLDYDSVQP [MYC_Y16] | phosphorylation enrichment | 1.39
MKVPVYETPAG [PGM5_Y358] | phosphorylation enrichment | 0.903
IKELTYQMEED [MYH7_Y1852_T1854M] | phosphorylation enrichment | 1.01
FASVEYQEALS [GALNS_Y461_A459V] | phosphorylation enrichment | 0.876
NTQRPYYKGGG [TYROBP_Y111] | phosphorylation enrichment | 0.601
GVLKEYVVKVL [CPS1_Y529_G530V] | phosphorylation enrichment | 0.814
SVSVNYGDLVQ [GRAP_Y101_Q104L] | phosphorylation enrichment | 0.728
LIDGYYRLTED [JAK2_Y373_A377E] | phosphorylation enrichment | 7.39
VITDFYVDMKF [MPP4_Y567_YF] | phosphorylation enrichment | 1.27
IIGNGYFFRVF [MYBPC3_Y1135_YF] | phosphorylation enrichment | 0.956
ASMAKYYASEI [ACADSB_Y372] | phosphorylation enrichment | 0.92
VIEFSYTSADG [DHCR7_Y382_C380Y_YF] | phosphorylation enrichment | 0.764

###

Catalogue of phosphorylation enrichment readings, one per entry.
target: Fyn (UniProt P06241); assay: phosphorylation enrichment, bacterial display (enrichment ratio); higher = better substrate or ligand; peptides without Tyr show the background
Sequence (P06241 whole entry, looked up): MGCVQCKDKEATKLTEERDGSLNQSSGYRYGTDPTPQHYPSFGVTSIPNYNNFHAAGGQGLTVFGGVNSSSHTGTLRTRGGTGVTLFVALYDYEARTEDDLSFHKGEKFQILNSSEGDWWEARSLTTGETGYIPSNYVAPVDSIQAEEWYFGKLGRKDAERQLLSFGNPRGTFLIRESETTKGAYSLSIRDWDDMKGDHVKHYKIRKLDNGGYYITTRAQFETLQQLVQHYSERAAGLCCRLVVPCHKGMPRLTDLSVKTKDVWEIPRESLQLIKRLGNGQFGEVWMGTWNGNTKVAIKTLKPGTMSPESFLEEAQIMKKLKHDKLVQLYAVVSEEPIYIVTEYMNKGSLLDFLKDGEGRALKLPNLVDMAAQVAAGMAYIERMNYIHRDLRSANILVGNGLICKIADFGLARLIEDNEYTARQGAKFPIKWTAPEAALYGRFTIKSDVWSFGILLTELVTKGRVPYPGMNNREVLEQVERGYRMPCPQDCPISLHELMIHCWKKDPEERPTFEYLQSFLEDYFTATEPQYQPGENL

SEQUENCE CHAIN | TGT | phosphorylation enrichment
MPAVTYTLAMR [MEGF10_Y895_P897L] | Fyn (UniProt P06241) | 0.53
FFRRHYPLTTL [TNS4_Y644] | Fyn (UniProt P06241) | 0.426
NDQANYLLNTD [ADA_Y290_S291L] | Fyn (UniProt P06241) | 0.491
CFTRKYTLPPG [HSPB1_Y142] | Fyn (UniProt P06241) | 0.443
ISGLKYPVSQQ [BTK_Y375_R372G] | Fyn (UniProt P06241) | 0.441

Origin of values: the supplement of paper PMC10065799
